# TARGET OR TEST SYSTEM: human olfactory receptor OR7D4 (Homo sapiens)
# Construct: transfected with a plasmid containing CRE-luciferase and a plasmid containing OR7D4; expressed in transfected cells; host or cells: HEK293T stably expressing olfactory chaperone proteins of the RTP family
# Sequence (Q8NG98 whole entry): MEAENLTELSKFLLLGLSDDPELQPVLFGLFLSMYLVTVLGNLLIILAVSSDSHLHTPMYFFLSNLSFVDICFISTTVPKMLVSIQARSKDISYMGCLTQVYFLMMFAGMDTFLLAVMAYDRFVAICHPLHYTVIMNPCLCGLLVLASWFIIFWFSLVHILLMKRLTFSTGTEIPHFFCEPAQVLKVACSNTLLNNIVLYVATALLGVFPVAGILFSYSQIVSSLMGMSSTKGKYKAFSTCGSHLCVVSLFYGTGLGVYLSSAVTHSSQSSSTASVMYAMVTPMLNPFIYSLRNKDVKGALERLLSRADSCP
# METHOD DESCRIPTION: OR7D4 luciferase gene reporter assay (antagonism of agonist-induced activation)
# Format: cell-based
# TEST PARAMETERS: dose-response, luciferase assay; half decrease of the luciferase production obtained without antagonist; androstenone at 31.6 micromolar
Kindly note that classification relies on IC50 with these boundaries: low: < 8 µM; moderate: ≥ 8 µM and < 50 µM; high: ≥ 50 µM

stdin: Field: class (IC50) — entry: CCCCCCC(/C=C/C(=O)O)=C\c1ccccc1 [Compound 22]
stdout: high

stdin: Record: CCOC(=O)/C(C)=C/C(=C/c1ccccc1OCC)CC [Compound 6]
stdout: moderate

stdin: # repeat for CCCC(/C=C(\C)CO)=C\c1ccccc1 [Compound 35]
stdout: high

stdin: How about this compound: CCOc1ccccc1/C=C(/C=C(\C)C(=O)O)CC [Compound 20]
stdout: moderate

stdin: Follow-up entry: CCCCCC(/C=C(\C)C=O)=C\c1ccccc1 [Compound 40]
stdout: moderate

stdin: Then what about the compound CCCCCC(/C=C/C(=O)OCC)=C\c1ccc(F)cc1 [Compound 45] ?
stdout: low

stdin: // repeat for CCCC(/C=C(\C)C=O)=C\c1ccccc1 [Compound 41] and report
stdout: high

stdin: Next: CCCCCCC(/C=C/C=O)=C\c1ccccc1 [Compound 39, (E)-4-((E)-benzylidene)dec-2-enal]
stdout: low

stdin: Same for CCCCCC(/C=C/C(=O)OC)=C\c1ccc(F)cc1 [Compound 46]
stdout: moderate

stdin: Another: CCCc1ccccc1/C=C/C=C/C=O [Compound 37]
stdout: high

stdin: What do you get for CCCCCC(/C=C(\C)CO)=C\c1ccccc1 [Compound 34] ?
stdout: moderate

stdin: Item: COc1cccc(/C=C/C=C(\C)CO)c1 [Compound 31]
stdout: high

stdin: Next compound up: CCCCCCC(=C\c1ccccc1)/C=C(\C)C(N)=O [Compound 23]
stdout: low

stdin: Entry to check: CCCCCCC(/C=C/C(=O)OC)=C\c1ccccc1 [Compound 10]
stdout: low

stdin: Quick one: CCCCCc1ccccc1/C=C/C=C/C(=O)OCC [Compound 4]
stdout: moderate

stdin: Another compound to look at: C=CCCCCC(=C\c1ccccc1)/C=C(\C)C(=O)OCC [Compound 8]
stdout: low

stdin: What would you report for CCOC(=O)/C(C)=C/C=C/c1cccc(OC)c1 [Compound 2] ?
stdout: moderate

stdin: Now consider COc1cccc(/C=C/C=C(\C)C=O)c1 [Compound 36] .
stdout: high
